Data origin, for the record: ChEMBL document CHEMBL5604062

- System tested: Nonstructural protein 3 (Zika virus)
- Sequence (A0A024AXB9 whole entry): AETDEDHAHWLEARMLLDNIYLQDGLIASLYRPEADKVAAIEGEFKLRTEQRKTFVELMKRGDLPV
- Test details: Functional biochemical assay to identify treatments for viral infectious disease that targets Zika NS2B-NS3 protease. Utilizing a direct enzyme activity measurement method, reading the fluorescence intensity is used to characterize the relative potency of inhibitors as IC50.
- Design: species or system PRVABC59
pIC50: −log10 of the molar value.

Compound structure	Sign qualifier	pIC50
O=C(O)COc1cc2c(cc1Cc1c[nH]c3ccc(Cl)cc13)OCO2	<	4.00
CN(C)Cc1ccc(C(=O)Nc2cc(Cl)cc(C(=O)NC(C)(C)CO)c2)[nH]1	<	4.00
CC(=Cc1cccc(-c2nnn[nH]2)c1)c1cc(Cl)cc(NC(=O)OCc2ccccc2)c1	=	4.92
CN1CCc2c(cccc2NC(=O)c2cc(Cl)cc(NC(=O)OCc3ccccc3)c2)C1	<	4.00
O=C(Nc1ccc2c(c1)CNC2)c1cc2ccccc2[nH]1	=	4.61
Brc1nc(Br)n(Cc2cscn2)n1	<	4.00
N#C[C@H](Nc1ccc2c(c1)CNC2)c1cccc2c1CCNC2=O	=	4.65
CCCN(C)CC(=O)N1CCC([C@@H](NC(=O)OCc2ccccc2)C(=O)Nc2cccc(CN)c2)CC1	<	4.00
Cc1ncc2c(n1)CCC[C@H]2NC(=O)c1cccc2c1CC(=O)N2	<	4.60
Cc1c(C(=O)Nc2cc(CCCN)ccn2)cc(C2CC2)n1C	=	4.40
